The entries that follow carry IC50 values tested on Vascular endothelial growth factor receptor 2 (Homo sapiens, UniProt P35968), drawn from several published reports.
Sequence (P35968 whole entry): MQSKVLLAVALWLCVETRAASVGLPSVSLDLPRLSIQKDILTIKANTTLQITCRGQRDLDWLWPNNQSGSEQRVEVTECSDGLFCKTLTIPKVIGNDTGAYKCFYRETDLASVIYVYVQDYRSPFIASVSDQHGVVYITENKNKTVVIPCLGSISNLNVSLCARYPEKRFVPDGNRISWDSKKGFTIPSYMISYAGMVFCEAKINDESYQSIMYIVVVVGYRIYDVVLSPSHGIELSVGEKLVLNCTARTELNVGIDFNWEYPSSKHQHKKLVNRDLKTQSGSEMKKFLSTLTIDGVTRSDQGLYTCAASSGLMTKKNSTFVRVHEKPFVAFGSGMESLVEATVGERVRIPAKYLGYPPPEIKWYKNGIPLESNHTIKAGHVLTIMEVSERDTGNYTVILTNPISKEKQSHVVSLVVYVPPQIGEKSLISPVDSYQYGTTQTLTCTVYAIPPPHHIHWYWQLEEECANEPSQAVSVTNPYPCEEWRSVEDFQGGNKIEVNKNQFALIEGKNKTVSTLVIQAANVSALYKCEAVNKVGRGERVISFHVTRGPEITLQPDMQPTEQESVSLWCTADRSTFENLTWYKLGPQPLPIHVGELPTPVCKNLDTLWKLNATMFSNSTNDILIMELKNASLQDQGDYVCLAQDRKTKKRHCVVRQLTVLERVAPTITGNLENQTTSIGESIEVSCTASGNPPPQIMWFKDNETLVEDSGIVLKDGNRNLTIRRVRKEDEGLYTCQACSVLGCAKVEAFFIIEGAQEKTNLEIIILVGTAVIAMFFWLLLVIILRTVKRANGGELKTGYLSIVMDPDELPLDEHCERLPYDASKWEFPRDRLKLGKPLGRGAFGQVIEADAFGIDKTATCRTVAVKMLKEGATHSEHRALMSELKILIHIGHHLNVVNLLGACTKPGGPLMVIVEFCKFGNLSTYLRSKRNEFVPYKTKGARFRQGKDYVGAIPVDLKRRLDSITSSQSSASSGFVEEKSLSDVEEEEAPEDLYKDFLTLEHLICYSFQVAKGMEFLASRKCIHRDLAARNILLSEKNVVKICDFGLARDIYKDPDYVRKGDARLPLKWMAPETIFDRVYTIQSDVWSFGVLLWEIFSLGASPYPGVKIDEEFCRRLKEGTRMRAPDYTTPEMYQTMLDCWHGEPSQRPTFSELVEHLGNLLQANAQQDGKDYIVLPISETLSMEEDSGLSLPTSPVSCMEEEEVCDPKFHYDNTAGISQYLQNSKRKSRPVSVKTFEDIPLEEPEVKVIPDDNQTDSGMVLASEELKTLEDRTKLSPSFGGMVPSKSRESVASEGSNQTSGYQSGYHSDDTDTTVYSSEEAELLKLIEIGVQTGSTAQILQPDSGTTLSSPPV
recorded.endpoint: IC50 (nM)

>>> df
                                     smiles  result_unit  value_qualifier   value
0  O=C(Nc1ccc(Oc2ccnc3[nH]ccc23)c(F)c1)c1cn(-c2ccc(F)cc2)c2ccccc2c1=O           nM                >   10000
1  COc1cc2ncnc(Oc3ccc4c(C(=O)NC5CC5)cccc4c3)c2cc1OC           nM                =     2.9
2  Cc1cc(NC2=NC(=O)/C(=C\c3c4ccccc4cc4ccccc34)S2)no1           nM                =      87
3  COc1ccc(Oc2cc(C)c(-c3csc(NC(=O)c4ccnc(F)c4)n3)c(C)c2)cc1           nM                >   10000
4  COc1cc2c(Oc3ccc(Nc4ccc(C(C)(C)C)cc4)cc3)ccnc2cc1OCCNCCO           nM                =      69
5  Cc1n[nH]c2nccc(-c3ccc(NC(=O)Nc4ccccn4)cc3)c12           nM                >   50000
6  O=C(Nc1cccc2cccnc12)c1cccc([N+](=O)[O-])c1           nM                =    16.5
7  O=S(=O)(Nc1nccs1)c1ccc(Nc2nc(Cl)nc3cc4c(cc23)OCO4)cc1           nM                >  100000
8  COc1cc2c(cc1OC)Oc1ncnc(Sc3cccc(Cl)c3)c1NC2           nM                >   10000
9  O=C(Nc1ccc(Cl)cc1)c1cccc2cc(Oc3ncnc4[nH]ccc34)ccc12           nM                =      28
